pEC50 reference
Biological target: T1, human BDCA2 (human, UniProt Q8WTT0 1-213)
T1 construct: whole, on cells; also called hBDCA2; Blood dendritic cell antigen 2
T1 sequence (looked up): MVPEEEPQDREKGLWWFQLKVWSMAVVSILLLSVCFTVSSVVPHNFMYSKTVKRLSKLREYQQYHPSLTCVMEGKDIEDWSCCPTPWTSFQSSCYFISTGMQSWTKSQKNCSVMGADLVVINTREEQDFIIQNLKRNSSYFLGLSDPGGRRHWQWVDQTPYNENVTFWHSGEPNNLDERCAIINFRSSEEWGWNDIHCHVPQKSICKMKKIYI
Assay: FACS on CHOK1-hBDCA2 cells; EC50 table under the plot, unit from the x axis (nM) [continued) d.]
By convention, pEC50 is the negative base-10 log of a molar concentration.

- BINDER: "BIIB059 (antibody, V domains shown) VH: DVQLVESGGGLVKPGGSLRLSCAASGFTFSTYTMSWVRQAPGKGLEWVATISPGDSFGYYYPDSVQGRFTISRDNAKNSLYLQMNSLRAEDTAVYYCTRDIYYNYGAWFAYWGQGTLVTVSS VL: DIQLTQSPSSLSASVGDRVTITCKASQSVDYDGDSYMNWYQQKPGKAPKLLIYAASTLESGVPSRFSGSGSGTDFTLTISSLQPEDFATYYCQQANEDPRTFGQGTKVEIKR"
  pEC50: 8.96

API: the following record is the query input.
-- ask Returns the measured pEC50 for the input binder. Input: mAb032 (antibody, V domains shown, Mouse hybridoma antibody) VH: DVQLQESGPGLVKPSQSLSLTCSVTGYSITSGYYWNWIRQFPGNKLECMGYISYDGSNYYNPSLKNRISITRDTSKNQFFLSLNSVTTEDTATYFCVRGGDYDDGGFAYWGQGTLVTVSA VL: DIQMTQSPASLSASVGETVTITCRASGNIHNYLAWYQQKQGKSPQLLVYNAKTLADGVPSRFSGSGSETQYSLKINSLQPEDFGNYFCQHFWIIPYTFGGGTKLEIK
-- reply 9.65
